System: NCI-H23
Test: NCI tumour cell line growth inhibition, 48 h
The source made the active and inactive calls. Rule as the data show it: active = GI50 up to about 1.1 µM and inactive = higher.
I'd be grateful if you could share measured GI50 for these entries.

> print(dat)
                                   compound  measured.attribute   experimental.value
1          CCOC(=O)c1csc(NC(=O)CCN(CC)CC)n1                GI50   64.7 µM (inactive)
2                COC(=O)CCSC(=O)Nc1ccccc1Cl                GI50  > 100 µM (inactive)
3  CC1(C)[C@@H]2C[C@H]1c1cnc(-c3ccccn3)cc1[C@H]2C(O)[C@@H]1c2cc(-c3ccccn3)ncc2[C@H]2C[C@@H]1C2(C)C (some centres undefined)                GI50    0.189 µM (active)

Please give GI50, item by item, for the list that follows.
1. O=c1[nH]/c(=C/c2ccc(OCc3ccccc3)cn2)c(=O)[nH]/c1=C/c1ccc(Cl)cc1
2. COc1ccc2c(=O)c3ccoc3[nH]c2c1
3. CCC(=O)Nc1cccc(NC(=O)c2c(Cl)c(Cl)c(Cl)c(Cl)c2-c2nc3ccccc3[nH]2)c1
4. Cc1[nH]c(=O)[nH]c(=O)c1N(CCF)CCCl [FLUORODOPAN]
5. COCCOCC(=O)N(CCn1ccc(NC(c2ccccc2)(c2ccccc2)c2ccccc2)nc1=O)CCn1cnc2nc(N)[nH]c(=O)c21
6. NCC(=O)Nc1ccc(Cl)cc1C(=O)c1ccc[nH]1

[A]
7.87 µM (inactive)
> 100 µM (inactive)
> 100 µM (inactive)
348 µM (inactive)
> 100 µM (inactive)
14.3 µM (inactive)
